System: L1210 leukemia ip in BDF1 mice, survival T/C
testDescription: NCI In Vivo Anticancer Drug Screen. Data for tumor model L1210 Leukemia (intraperitoneal) in B6D2F1 (BDF1) mice
conditionInfo: endpoint: mean survival time; dose: 400.0 mg/kg/injection; schedule: Q04DX003 (ip); vehicle: Klucel (hydroxypropylcellulose) (HPC); higher = longer survival
Inconclusive results and toxic doses are left out.
recordedEndpoint: T/C

Use the examples below as a reference point.
• Cc1ccc(SSc2ccc(C)cc2[N+](=O)[O-])c([N+](=O)[O-])c1 = 94 % of control
• O=C(COc1ccc(Cl)cc1C(=O)O)NCc1cccc2ccccc12 = 100 % of control
• O=C(CCl)NC1CCC(CC2CCCCC2)CC1 (configuration not stated) = 89 % of control

Missing value: T/C, L1210 leukemia ip in BDF1 mice, survival T/C, entry `Cc1ccc(NC(=O)Sc2ccc(Cl)cc2)c([N+](=O)[O-])c1` . Fill in?
109 % of control

Missing value: T/C, L1210 leukemia ip in BDF1 mice, survival T/C, entry `Cc1cc([N+](=O)[O-])c(C)cc1Cl` . Fill in?
98 % of control

Missing value: T/C, L1210 leukemia ip in BDF1 mice, survival T/C, entry `Clc1cc(Cl)cc(N=Nc2ccccc2)c1` . Fill in?
103 % of control

Missing value: T/C, L1210 leukemia ip in BDF1 mice, survival T/C, entry `Cc1c(Cl)cccc1NC(=O)c1ccccc1C(=O)O` . Fill in?
102 % of control

Missing value: T/C, L1210 leukemia ip in BDF1 mice, survival T/C, entry CCC(=O)OC1CC2C3CCC4=CC(=O)CCC4(C)C3CCC2(C)C1OC(=O)CC (configuration not stated) . Fill in?
101 % of control

Missing value: T/C, L1210 leukemia ip in BDF1 mice, survival T/C, entry `O=C1CCCSc2ccccc21` . Fill in?
101 % of control

Missing value: T/C, L1210 leukemia ip in BDF1 mice, survival T/C, entry `COc1ccc(C=O)c(O)c1` . Fill in?
105 % of control

Missing value: T/C, L1210 leukemia ip in BDF1 mice, survival T/C, entry `O=C(Oc1ccccc1)Oc1c(Cl)cc([N+](=O)[O-])cc1[N+](=O)[O-]` . Fill in?
93 % of control

Missing value: T/C, L1210 leukemia ip in BDF1 mice, survival T/C, entry `O=CNC(NC=O)c1ccccc1[N+](=O)[O-]` . Fill in?
100 % of control

###

System: L1210 leukemia ip in BDF1 mice, survival T/C
testDescription: NCI In Vivo Anticancer Drug Screen. Data for tumor model L1210 Leukemia (intraperitoneal) in B6D2F1 (BDF1) mice
conditionInfo: endpoint: mean survival time; dose: 25.0 mg/kg/injection; schedule: Q01DX009 (ip); vehicle: saline; higher = longer survival
Inconclusive results and toxic doses are left out.
recordedEndpoint: T/C

Use the examples below as a reference point.
* O=C(Cl)c1c(Cl)c(Cl)c(C(=O)Cl)c(Cl)c1Cl | 90 % of control
* CC(C)NC(=O)CCl | 96 % of control
* C/C(=C\CN1C(=O)c2ccccc2C1=O)CCC(=O)O | 109 % of control
* OC(CBr)C(O)CBr (centres undefined) | 97 % of control
* CC1CC(C)(C)[N+]2=C(CCCC2)O1 (centres undefined) | 103 % of control

--- query ---
Which measured T/C value corresponds to `CN(C)CCOc1ccccc1Cc1ccccc1` ?
97 % of control
